Study System: CDK2 (human)
pKi: −log10 of the molar value.
Metric: pKi

Record excerpt, results attached:
CCNCc1cncc(-c2ccc3[nH]nc(-c4nc(C(=O)NC5CCCCC5)c[nH]4)c3c2)c1C > 7.30
CCNCc1cncc(-c2ccc3[nH]nc(-c4ncc(C(=O)NCCN(C)C)[nH]4)c3c2)c1C > 7.30

Shift focus to the following entry.
Request: # get_value(readout= pKi, system= CDK2 (human)) for CCNCc1cncc(-c2ccc3[nH]nc(-c4ncc(C(=O)N5CCN(Cc6ccccc6)CC5)[nH]4)c3c2)c1C
Response: > 7.30

====

Reported Ki is given for each of the following molecules.
Study System: CDK2 (human) (UniProt P24941)

CCNCc1cncc(-c2ccc3[nH]nc(-c4ncc(C(=O)N(CCN(C)C)Cc5ccccc5)[nH]4)c3c2)c1C < 50 nM

Request: Requested read-out Ki, target or system CDK2 (human) (UniProt P24941), entry CCNCc1cncc(-c2ccc3[nH]nc(-c4nc(-c5ccc(C(F)(F)F)cc5)c(C)[nH]4)c3c2)c1C
Response: < 50 nM

Request: Enter reported Ki observed with CDK2 (human) (UniProt P24941) for CCNCc1cncc(-c2ccc3[nH]nc(-c4nc(CC(C)C)c(C)[nH]4)c3c2)c1C
Response: < 50 nM

Request: Lab note: need Ki for CCCCCC.CCNCc1cncc(-c2ccc3[nH]nc(-c4nc(CC)c(C)[nH]4)c3c2)c1C on CDK2 (human) (UniProt P24941), anyone have it?
Response: < 50 nM

Request: For CDK2 (human) (UniProt P24941), provide Ki of CCNCc1cncc(-c2ccc3[nH]nc(-c4nc(-c5cccc(F)c5)c[nH]4)c3c2)c1C please.
Response: < 50 nM

Request: Hello, I am looking for reported Ki with CDK2 (human) (UniProt P24941) for CCNCc1cncc(-c2ccc3[nH]nc(-c4ncc(C(=O)N[C@H]5CCCCNC5=O)[nH]4)c3c2)c1C . Could you help?
Response: < 50 nM
